tgt: dengue virus capping enzyme (Dengue virus type 2)
Sequence (P29990 2492-2758): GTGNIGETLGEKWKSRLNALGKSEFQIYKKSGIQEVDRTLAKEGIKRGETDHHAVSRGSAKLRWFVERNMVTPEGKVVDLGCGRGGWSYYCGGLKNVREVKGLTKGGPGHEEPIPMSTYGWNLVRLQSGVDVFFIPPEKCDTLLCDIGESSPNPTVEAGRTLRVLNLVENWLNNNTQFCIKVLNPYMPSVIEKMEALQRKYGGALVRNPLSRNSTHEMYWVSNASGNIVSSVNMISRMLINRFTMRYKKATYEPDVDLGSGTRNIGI
protocol notes: biochemical
Format: binding, dengue virus type 2 (strain 16681)
test conditions: read-out: FP_DEN_Ki_AVG_DEN_M
// reported Ki for each item listed

Recorded results for 3 compounds are shown here.
{"smi": "O=C(O)CCN1C(=O)C(=Cc2ccccc2)SC1=S", "tgt": "dengue virus capping enzyme (Dengue virus type 2)", "value reported": "≥ 100 µM"}
{"smi": "O=C(O)CCN1C(=O)/C(=C/c2ccccc2F)SC1=S", "tgt": "dengue virus capping enzyme (Dengue virus type 2)", "value reported": "≥ 100 µM"}
{"smi": "O=C(O)CN1C(=O)/C(=C/c2ccccc2)SC1=S", "tgt": "dengue virus capping enzyme (Dengue virus type 2)", "value reported": "≥ 100 µM"}

The record that follows has no Ki shown yet.
Input O=C(O)CCN1C(=O)C(=Cc2ccc(F)cc2)SC1=S . Output Ki: ≥ 100 µM
